- Test system: MDA-MB-435
- METHOD_NOTES: NCI tumour cell line growth inhibition, 48 h
Binary call on TGI: criterion met from 30 µM upward, criterion not met beneath that.

Would you please look over these solved cases?
{"columns": ["COMPOUND", "CATEGORY"],
 "data": [
  ["O=C(NO)c1ccc(OCc2ccccc2)cc1", "criterion met"],
  ["COc1ccc2c(c1)N(CCO)C1=C(C(=O)OC1)C2c1cccc(Br)c1 (stereo not drawn)", "criterion not met"],
  ["Cc1cc(-c2ccc(Cl)cc2)c(C#N)c(=S)n1C1OC(CO)C(O)C(O)C1O (stereo not drawn)", "criterion met"],
  ["COc1cc2c(cc1C)NC(=O)/C2=C/c1c(C)nc2sc(C)cn12", "criterion met"],
  ["Cc1ccc(S(=O)(=O)N/N=C2/CC[C@H](C(C)(C)C)C[C@@H]2C)cc1", "criterion met"],
  ["CCN(CC)CCCC(C)Nc1ccnc2cc(Cl)c(SCc3ccccc3)cc12 (stereo not drawn)", "criterion not met"]
]}

# bool: TGI of NNc1nc(-c2ccccn2)nc2sc3c(c12)CCCCCC3 >= 30 µM criterion met

# bool: TGI of COc1ccc(/C=C/C(=O)c2ccc(NC(=O)CSc3nnc(-c4cc(OC)c(OC)c(OC)c4)o3)cc2)cc1 >= 30 µM criterion not met

# bool: TGI of Clc1ccc(N=Cc2cc3cc(Br)ccc3nc2Cl)cc1 >= 30 µM criterion met

# bool: TGI of O=C1c2ccc3ccccc3c2CCC1N1CCCCC1 (stereo not drawn) >= 30 µM criterion met

# bool: TGI of CCOCC[P+](c1ccccc1)(c1ccccc1)c1ccccc1 >= 30 µM criterion met

# bool: TGI of O=C(Nc1ncc(Cc2ccc(Cl)cc2)s1)c1ccc2c(c1)OCCO2 >= 30 µM criterion not met

# bool: TGI of O=C(O)C1CCCN1Cc1ccc2c(c1)OCO2 (stereo not drawn) >= 30 µM criterion met

# bool: TGI of O=C(O)CCCC#CCCCC(=O)O >= 30 µM criterion met

# bool: TGI of N=C(N)c1ccc(-c2ccc(-c3ccco3)o2)cc1F >= 30 µM criterion not met

# bool: TGI of COC(=O)c1cc(/C=C2\Cc3cc4c(cc3C2=O)CCC4)cc2c1CCC2 >= 30 µM criterion met

# bool: TGI of O=C1c2cccnc2-c2nccc3ccnc1c23 >= 30 µM criterion not met

# bool: TGI of COc1cc2c(/C=C3/C(=O)Nc4c3ccc3ccccc43)c(Cl)[nH]c2cc1C >= 30 µM criterion not met
